Values from patent EP4707300A1

- TARGET: T1, cynomolgus monkey IL-15 (mfIL-15+mfIL-15Rα complex), tag on IL-15Rα not stated (cynomolgus monkey (Macaca fascicularis), UniProt P40221 49-162; Q13261 31-128)
- T1 construct: also called monkey IL-15+IL-15Rα superagonist
- T1 chain 1: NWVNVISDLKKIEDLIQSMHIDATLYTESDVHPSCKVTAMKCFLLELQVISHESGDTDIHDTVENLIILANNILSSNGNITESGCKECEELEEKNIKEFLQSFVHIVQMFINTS
- T1 chain 2: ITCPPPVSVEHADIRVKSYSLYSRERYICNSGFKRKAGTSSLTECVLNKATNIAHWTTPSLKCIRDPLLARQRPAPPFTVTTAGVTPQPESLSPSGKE
- RUN DESCRIPTION: SPR (Biacore T200), as in Example 2.2
Each entry below lists one item and its recorded Kd value.
Lab book: enter the figure in nM, no units written.

Examples with answers:
Incoming: Please list Kd recorded for the binder anti-human IL-15 monoclonal antibody R4G4VH+R22F11VK (antibody, V domains shown, Mutant of R1A3; it was captured by anti-human IgG (Fc) in SPR and detected with anti-human IgG in ELISA, so a human Fc is implied; also called R4G4VH+R22FVK) VH: EVQLVQSGAEVKKPGESLKISCKVSGYFFTTYWIGWVRQMPGKGLEYMGIIYPGDSDTRYSPSFQGQVTISADKSISTAYLQWSSLKASDTAMYYCARGGHWNAFDIWGQGTLVTVSS VL: EIVLTQSPGTLSLSPGERATLSCRASQSVIGSYLAWYQQKPGQAPRLLIYSASKLASGIPDRFSGSGSGTDFTLTISRLEPEDFAVYYCQQHYSTPGTFGQGTKVEIK
Outgoing: 0.448

Incoming: Identify measured Kd associated with anti-human IL-15 monoclonal antibody R1A3 (antibody, V domains shown, Found from a fully human Fab phage library) VH: EVQLVQSGAEVKKPGESLKISCKVSGYFFTTYWIGWVRQMPGKGLEYMGIIYPGDSDTRYSPSFQGQVTISADKSISTAYLQWSSLKASDTAMYYCARGGHWNAFDFWGQGTLVTVSS VL: EIVLTQSPGTLSLSPGERATLSCRASQSVSSSYLAWYQQKPGQAPRLLIYGASRRATGIPDRFSGSGSGTDFTLTISRLEPEDFAVYYCQQFDASQTFGQGTKLEISR
Outgoing: 0.722

Incoming: For the binder anti-human IL-15 monoclonal antibody AMG714 (antibody, V domains shown) VH: EVQLVQSGAEVKKPGESLKISCKVSGYFFTTYWIGWVRQMPGKGLEYMGIIYPGDSDTRYSPSFQGQVTISADKSISTAYLQWSSLKASDTAMYYCARGGNWNCFDYWGQGTLVTVSS VL: EIVLTQSPGTLSLSPGERATLSCRASQSVSSSYLAWYQQKPGQAPRLLIYGASRRATGIPDRFSGSGSGTDFTLTISRLEPEDFAVYYCQRYGSSHTFGQGTKLEISR , give its reported Kd.
Outgoing: 2.12

Next:
Incoming: // Input: anti-human IL-15 monoclonal antibody R2H2VH+R22F11VK (antibody, V domains shown, Mutant of R1A3; it was captured by anti-human IgG (Fc) in SPR and detected with anti-human IgG in ELISA, so a human Fc is implied; also called R2H2VH+R22FVK) VH: EVQLVQSGAEVKKPGESLKISCKVSGYFFTTYWIGWVRQMPGKGLEYMGIIYPGDSDTRYSPSFQGQVTISADKSISTAYLQWSSLKASDTAMYYCARGGHWNSFDTWGQGTLVTVSS VL: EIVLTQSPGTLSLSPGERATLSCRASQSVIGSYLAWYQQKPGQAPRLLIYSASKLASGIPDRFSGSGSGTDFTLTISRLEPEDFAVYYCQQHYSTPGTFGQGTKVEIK . Output its Kd only.
Outgoing: 0.463

Incoming: Assign Kd to the following record: anti-human IL-15 monoclonal antibody R26H10 (antibody, V domains shown, Humanized mutant of R6E11 with a fully human light chain; captured by anti-human IgG (Fc) in SPR and detected with anti-human IgG in ELISA) VH: QVTLKESGPVLVKPTETLTLTCTVSGFSLTTYAVHWIRQPPGKALEWLGVIWGAGSTDYNPSFMSRLTISKDTSKSQVVLTMTNMDPVDTATYYCAKNAAYYVMDYWGQGTTVTVSS VL: EIVLTQSPGTLSLSPGERATLSCRASQSVIYSYLAWYQQKPGQAPRLLIYAASKLASGIPDRFSGSGSGTDFTLTISRLEPEDFAVYYCQQRASYPLTFGQGTKVEIK
Outgoing: 99.9
